- Target: UniProt:P35968
- Sequence (P35968 20-1356): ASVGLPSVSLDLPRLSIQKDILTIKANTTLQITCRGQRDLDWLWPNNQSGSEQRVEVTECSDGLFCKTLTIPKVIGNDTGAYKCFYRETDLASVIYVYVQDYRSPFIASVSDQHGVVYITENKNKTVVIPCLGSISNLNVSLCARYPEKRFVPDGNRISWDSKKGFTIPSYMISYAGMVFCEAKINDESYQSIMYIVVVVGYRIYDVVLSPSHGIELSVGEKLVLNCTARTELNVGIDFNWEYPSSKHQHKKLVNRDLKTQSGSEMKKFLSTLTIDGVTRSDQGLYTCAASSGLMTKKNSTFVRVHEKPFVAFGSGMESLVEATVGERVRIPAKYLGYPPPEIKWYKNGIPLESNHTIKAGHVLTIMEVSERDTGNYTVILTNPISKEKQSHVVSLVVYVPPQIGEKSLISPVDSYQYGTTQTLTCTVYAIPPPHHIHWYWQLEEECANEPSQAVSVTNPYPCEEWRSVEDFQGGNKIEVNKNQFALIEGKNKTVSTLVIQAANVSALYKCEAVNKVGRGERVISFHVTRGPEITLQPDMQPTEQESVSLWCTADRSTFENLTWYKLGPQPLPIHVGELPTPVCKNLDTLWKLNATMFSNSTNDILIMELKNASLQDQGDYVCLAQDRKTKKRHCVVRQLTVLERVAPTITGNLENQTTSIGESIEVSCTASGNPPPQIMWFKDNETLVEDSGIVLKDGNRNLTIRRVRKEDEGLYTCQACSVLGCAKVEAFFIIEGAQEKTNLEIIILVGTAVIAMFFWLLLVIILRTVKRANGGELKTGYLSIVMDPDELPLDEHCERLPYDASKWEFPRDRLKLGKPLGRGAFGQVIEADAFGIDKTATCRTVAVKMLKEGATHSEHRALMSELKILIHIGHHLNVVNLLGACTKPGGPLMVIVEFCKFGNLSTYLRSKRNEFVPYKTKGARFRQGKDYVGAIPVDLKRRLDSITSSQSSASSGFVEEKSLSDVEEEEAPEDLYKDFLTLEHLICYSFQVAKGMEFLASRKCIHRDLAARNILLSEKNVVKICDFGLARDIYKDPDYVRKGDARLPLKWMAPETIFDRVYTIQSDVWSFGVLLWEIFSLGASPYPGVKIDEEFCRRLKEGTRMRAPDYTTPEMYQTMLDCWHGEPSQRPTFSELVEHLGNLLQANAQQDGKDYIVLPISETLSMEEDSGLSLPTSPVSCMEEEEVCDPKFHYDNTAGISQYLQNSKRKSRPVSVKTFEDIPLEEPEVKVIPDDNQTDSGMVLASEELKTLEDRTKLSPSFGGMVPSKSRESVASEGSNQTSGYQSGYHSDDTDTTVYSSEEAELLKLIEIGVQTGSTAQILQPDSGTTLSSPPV
- Experiment notes: Inhibition of KDR phosphorylation in human KDR-transfected NIH3T3 cells (ELISA)
- Condition parameters: human KDR-transfected NIH3T3 cells, VEGF 100 ng/ml, ELISA; read-out: KDR phosphorylation 50% inhibitory concentration (IC50)
- Procedure: Human KDR-transfected NIH3T3 cells (Sawano A et al., Cell Growth & Differentiation, 7, 213-221 (1996)) were cultured in a DMEM medium containing 10% fetal calf serum (purchased from GIBCO BRL) within a 5% carbon dioxide incubator until 50 to 70% confluent. The harvested cells were seeded into wells, containing the same medium, in a collagen type 1 coat 96-well flat-bottom plate in an amount of 1.5×10^4 per well, and cultured at 37° C. overnight. […]
Simple rule here: IC50 less than 20 nM is criterion met, otherwise criterion not met.

INSERT INTO measurements (compound, classification) VALUES
  ('COc1cc2nccc(Oc3ccc(NC(=O)N[C@@H](C)c4ccc(F)cc4)c(Cl)c3)c2cc1OC', 'criterion not met'),
  ('COc1cc2nccc(Oc3ccc(NC(=O)NC(C)c4ncc(C)s4)cc3F)c2cc1OC (centres unmarked)', 'criterion not met'),
  ('COc1cc2c(Oc3ccc(NC(=O)NC(C)c4ccc(F)cc4)cc3F)ccnc2cc1OCCCN1CCOCC1 (centres unmarked)', 'criterion met'),
  ('COc1cc2nccc(Oc3ccc(NC(=O)N[C@H](C)c4ccc(F)cc4)c(C)c3)c2cc1OC', 'criterion met'),
  ('COc1cc2nccc(Oc3ccc(NC(=O)N[C@H](C)c4cccc(Br)c4)cc3OC)c2cc1OC', 'criterion met'),
  ('COc1cc2nccc(Oc3ccc(NC(=O)N[C@H](C)c4cccc(Br)c4)c(C(F)(F)F)c3)c2cc1OC', 'criterion met'),
  ('COc1cc2nccc(Oc3ccc(NC(=O)NC(C)c4ncc(C)s4)cc3)c2cc1OC (centres unmarked)', 'criterion not met'),
  ('COc1cc2nccc(Oc3ccc(NC(=O)N[C@H](C)c4ccc(F)cc4)c(Cl)c3)c2cc1OC', 'criterion met'),
  ('COc1cc2c(Oc3ccc(NC(=O)NC(C)c4ccc(F)cc4F)cc3F)ccnc2cc1OCCCN1CCOCC1 (centres unmarked)', 'criterion met'),
  ('COc1cc2c(Oc3ccc(NC(=O)NC(C)c4ccc(F)cc4F)c(F)c3)ccnc2cc1OCCCN1CCOCC1 (centres unmarked)', 'criterion met'),
  ('COc1cc2c(Oc3ccc(NC(=O)NC(C)c4ccc(F)c(F)c4)cc3F)ccnc2cc1OCCCN1CCOCC1 (centres unmarked)', 'criterion not met'),
  ('COc1cc2nccc(Oc3ccc(NC(=O)N[C@H](C)c4ccc(F)cc4)c(F)c3)c2cc1OC', 'criterion met'),
  ('COc1cc2nccc(Oc3ccc(NC(=O)NC(C)c4ccc(F)cc4)cc3)c2cc1OC (centres unmarked)', 'criterion met'),
  ('COc1cc(Oc2ccnc3cc(OC)c(OC)cc23)ccc1NC(=O)N[C@H](C)c1ccc(F)cc1', 'criterion met'),
  ('COc1ccc([C@H](C)NC(=O)Nc2ccc(Oc3ccnc4cc(OC)c(OC)cc34)cc2)cc1', 'criterion not met'),
  ('COc1cc(Oc2ccnc3cc(OC)c(OC)cc23)ccc1NC(=O)NC(C)c1ncc(C)s1 (centres unmarked)', 'criterion not met'),
  ('COc1cc2nccc(Oc3ccc(NC(=O)N[C@H](C)c4cccc(Br)c4)c(C)c3C)c2cc1OC', 'criterion met'),
  ('COc1cc2nccc(Oc3ccc(NC(=O)N[C@@H](C)c4ccccc4OC)cc3)c2cc1OC', 'criterion not met'),
  ('COc1cc2nccc(Oc3ccc(NC(=O)N[C@H](C)c4cccc(Br)c4)c(F)c3)c2cc1OC', 'criterion met'),
  ('COc1cc2nccc(Oc3ccc(NC(=O)N[C@H](C)c4ccc(F)cc4)cc3F)c2cc1OC', 'criterion met'),
  ('COc1cc2nccc(Oc3cc(C)c(NC(=O)NC(C)c4ccc(F)cc4)cc3C)c2cc1OC (centres unmarked)', 'criterion met'),
  ('COc1cc2nccc(Oc3ccc(NC(=O)N[C@H](C)c4ccc(F)cc4)cc3OC)c2cc1OC', 'criterion met'),
  ('COc1cc2nccc(Oc3ccc(NC(=O)N[C@H](C)c4cccc(Br)c4)cc3)c2cc1OC', 'criterion met'),
  ('COc1cc2nccc(Oc3ccc(NC(=O)N[C@@H](C)c4nccs4)c(F)c3)c2cc1OC', 'criterion not met'),
  ('COc1cc2nccc(Oc3ccc(NC(=O)NC(C)c4nccs4)cc3OC)c2cc1OC (centres unmarked)', 'criterion not met'),
  ('COc1cc2nccc(Oc3ccc(NC(=O)NC(C)c4nccs4)c(C(F)(F)F)c3)c2cc1OC (centres unmarked)', 'criterion met'),
  ('COc1cc2nccc(Oc3ccc(NC(=O)NC(C)c4nccs4)cc3)c2cc1OC (centres unmarked)', 'criterion not met'),
  ('COc1cc2nccc(Oc3ccc(NC(=O)N[C@@H](C)c4cccc(Br)c4)cc3)c2cc1OC', 'criterion not met'),
  ('COc1cc2nccc(Oc3ccc(NC(=O)NC(C)c4ccc(F)cc4)c(Cl)c3)c2cc1OC (centres unmarked)', 'criterion met'),
  ('COc1cc2nccc(Oc3ccc(NC(=O)NC(C)c4ncc(C)s4)c(F)c3)c2cc1OC (centres unmarked)', 'criterion not met'),
  ('COc1cc2nccc(Oc3ccc(NC(=O)NC(C)c4ccc(F)cc4)cc3OC)c2cc1OC (centres unmarked)', 'criterion met'),
  ('COc1cc2nccc(Oc3ccc(NC(=O)NC(C)c4ccc(F)cc4)c(C)c3C)c2cc1OC (centres unmarked)', 'criterion met');
